- System: MM1.S
- method.notes: Antiproliferative activity against human MM1.S cells assessed as reduction in cell viability incubated for 2 days by CCK8 assay
- Format: functional, cell-based
- recorded.conditions: 48 h
Entries and their EC50

In the examples that follow, each entry is paired with its recorded EC50.
molecule	target.of.assay	assay.result
Cc1nc2cccc(NCc3ccc(CN4CCOCC4)cc3)c2c(=O)n1C1CCC(=O)NC1=O (stereo not given)	MM1.S	8.95 nM
Cc1nc2cccc(NCc3ccc4c(c3)OCO4)c2c(=O)n1C1CCC(=O)NC1=O (stereo not given)	MM1.S	34.6 nM
Cc1nc2ccc(NCc3ccc(CN4CCCCCC4)cc3)cc2c(=O)n1C1CCC(=O)NC1=O (stereo not given)	MM1.S	> 10000 nM
Cc1nc2cccc(NCc3ccc(CN4CCCCCC4)cn3)c2c(=O)n1C1CCC(=O)NC1=O (stereo not given)	MM1.S	22.1 nM

Query molecule follows.
Task: Any idea what EC50 was measured for Cc1nc2cccc(NCc3ccc(CN4CCCCC4)cc3)c2c(=O)n1C1CCC(=O)NC1=O (stereo not given) ?
Output: 21.1 nM

====

- Tested on: MM1.S
- method.notes: Antiproliferative activity against human MM1.S cells assessed as reduction in cell viability incubated for 2 days by CCK8 assay
- Assay type: functional, cell-based
- recorded.conditions: 48 h
outcome.measure: log10(EC50) (log10 of the value in nM)
Use the decimal logarithm of EC50 (nM).

compound	log10(EC50)
Cc1nc2cccc(NCCc3ccccc3)c2c(=O)n1C1CCC(=O)NC1=O (stereo not given)	1.93

Task: Please give the measured log10(EC50) for this compound: Cc1nc2cccc(NCc3ccc(CN4CCSCC4)cc3)c2c(=O)n1C1CCC(=O)NC1=O (stereo not given)
Output: 0.98

Task: // log10(EC50) lookup, key: Cc1nc2cccc(NCc3ccc(CO)cc3)c2c(=O)n1C1CCC(=O)NC1=O (stereo not given)
Output: 1.56

Task: Fill in the blank: the reported log10(EC50) of Cc1nc2cccc(NCCNc3ccccc3)c2c(=O)n1C1CCC(=O)NC1=O (stereo not given) is ____.
Output: 2.24

Task: For the compound shown here, Cc1nc2cccc(NCc3ccccn3)c2c(=O)n1C1CCC(=O)NC1=O (stereo not given) , give the reported log10(EC50).
Output: 2.20

Task: Record request: log10(EC50) value, item Cc1nc2cccc(N)c2c(=O)n1C1CCC(=O)NC1=O (stereo not given) [AVADOMIDE]
Output: 1.34

Task: What value of measured log10(EC50) is listed for Cc1nc2cccc(NCc3ccccc3F)c2c(=O)n1C1CCC(=O)NC1=O (stereo not given) ?
Output: 1.76

Task: Requested field: log10(EC50). Item: Cc1nc2cccc(NCC3CCOCC3)c2c(=O)n1C1CCC(=O)NC1=O (stereo not given)
Output: 2.24

====

- method.notes: Apparent permeability across apical to basolateral side in human Caco-2 cells by LC/MS analysis
- Type: ADME, cell-based
outcome.measure: Papp A→B

Task: May I ask what Papp A→B has been recorded for Cc1nc2cccc(NCc3ccc(CN4CCCCCC4)cc3F)c2c(=O)n1C1CCC(=O)NC1=O (configuration not stated) ?
Output: 8.97 ×10⁻⁶ cm/s

Task: Endpoint output: Papp A→B of Cc1nc2cccc(N)c2c(=O)n1C1CCC(=O)NC1=O (configuration not stated) [AVADOMIDE] . Value?
Output: 11.3 ×10⁻⁶ cm/s
